Hello, the source for this data is ChEMBL document CHEMBL4725407, in case you need it.

Please provide measured Ratio Ki for the entries that follow.
Test system: HEK293-EBNA
Experiment: Selectivity index, ratio of Ki for human CB1R transfected in HEK293EBNA cell membrane to ratio of Ki for human CB2R transfected in HEK293EBNA cell membrane incubated for 90 mins by Microbeta TriLux based luminescence analysis
Reply with just the number.

Query string: Could you tell me which Ratio Ki is on file for `Cn1nc(OCc2ccc3ccccc3c2)c2ccccc21` ?
Result string: 0.4

Query string: Next compound: `CCCCCOc1nn(CCCCC)c2ccc([N+](=O)[O-])cc12`
Result string: 1.9

Query string: Next compound: `O=[N+]([O-])c1ccc2c(c1)c(OCc1ccccc1)nn2Cc1ccccc1`
Result string: 3

Query string: Next compound: `CCCn1nc(OCc2ccc3ccccc3c2)c2cc(N)ccc21`
Result string: 0.6

Query string: Next compound: `Nc1ccc2c(c1)c(OCc1ccccc1)nn2Cc1ccccc1`
Result string: 2.5

Query string: Next compound: `O=[N+]([O-])c1ccc2[nH]nc(OCc3ccc4ccccc4c3)c2c1`
Result string: 2.7

Query string: Next compound: `COc1ccc(COc2n[nH]c3ccccc23)cc1`
Result string: 4.7

Query string: Next compound: `c1ccc(COc2nn(Cc3ccccc3)c3ccccc23)cc1`
Result string: 0.7

Query string: Next compound: `CCCCCn1nc(OCc2ccc3ccccc3c2)c2cc([N+](=O)[O-])ccc21`
Result string: 1.2

Query string: Next compound: `c1ccc2c(c1)c(OCC1CCCCC1)nn2CC1CCCCC1`
Result string: 0.2

Query string: Next compound: `c1ccc2cc(COc3n[nH]c4ccccc34)ccc2c1`
Result string: 3.1

Query string: Next compound: `CCCCCn1nc(OCc2ccc(OC)cc2)c2cc([N+](=O)[O-])ccc21`
Result string: 1.6

###

System: HEK293-EBNA
Test: Selectivity index, ratio of Ki for human CB1R transfected in HEK293EBNA cell membrane to ratio of Ki for human CB2R transfected in HEK293EBNA cell membrane incubated for 90 mins by Microbeta TriLux based luminescence analysis
metric.name: Ratio Ki

Query string: # get_value(readout= Ratio Ki, system= HEK293-EBNA) for `Cn1nc(OCCc2ccccc2)c2cc([N+](=O)[O-])ccc21`
Result string: > 33.3

Query string: Next molecule: `O=[N+]([O-])c1ccc2c(c1)c(OCc1ccc3ccccc3c1)nn2Cc1ccccc1`
Result string: > 25

Query string: Next molecule: `O=[N+]([O-])c1ccc2[nH]nc(OCc3cccc4ccccc34)c2c1`
Result string: > 44.4
